Hello, the source for this data is the kinase profiling compilation of Christmann-Franck et al. (2016), in case you need it.

Molecular target: AURKC (human)
Experiment: KINOMEscan competition binding
Conditions: compound 10.0 µM
// kinase still bound, per cent of control lookup, one value per entry
Hi! Could you send only the number? It should be in %, unit omitted.

| compound | system_under_test | unit_annotation | kinase still bound, per cent of control |
| --- | --- | --- | --- |
| N#C/C(=C1/Nc2ccccc2S1)c1ccnc(NCCc2cccnc2)n1 | AURKC (human) | % | 67 |

Exam item: I am curious: what kinase still bound, per cent of control value has been reported for CC(=O)c1c(C)c2cnc(Nc3ccc(N4CCNCC4)cn3)nc2n(C2CCCC2)c1=O ?
Marked response: 96

Exam item: Next up: CNC(=O)Nc1ccc(-c2nc(N3CC4CCC(C3)O4)c3cnn(C4CCC5(CC4)OCCO5)c3n2)cc1
Marked response: 86

Exam item: Please do the same for COc1cc2ncnc(Nc3cccc(Cl)c3)c2cc1OC as well.
Marked response: 49

Exam item: Same thing, different compound: C=CC(=O)Nc1ccc(C(=O)c2sc(Nc3ccc(N4CCN(C)CC4)cc3OC)nc2N)cc1
Marked response: 68

Exam item: Consider next the compound Cc1cn(-c2cc(C(=O)Nc3ccc(C)c(NC(=O)c4ccno4)c3)cc(C(F)(F)F)c2)cn1 in the same way.
Marked response: 100

Exam item: # iterate: N#Cc1cc(-c2ccnc(Nc3ccc(-n4cnc(-c5cccnc5)n4)cc3)n2)cc(N2CCOCC2)c1
Marked response: 40

###

Target: UniProt Q15746
Sequence (Q15746 whole entry, looked up): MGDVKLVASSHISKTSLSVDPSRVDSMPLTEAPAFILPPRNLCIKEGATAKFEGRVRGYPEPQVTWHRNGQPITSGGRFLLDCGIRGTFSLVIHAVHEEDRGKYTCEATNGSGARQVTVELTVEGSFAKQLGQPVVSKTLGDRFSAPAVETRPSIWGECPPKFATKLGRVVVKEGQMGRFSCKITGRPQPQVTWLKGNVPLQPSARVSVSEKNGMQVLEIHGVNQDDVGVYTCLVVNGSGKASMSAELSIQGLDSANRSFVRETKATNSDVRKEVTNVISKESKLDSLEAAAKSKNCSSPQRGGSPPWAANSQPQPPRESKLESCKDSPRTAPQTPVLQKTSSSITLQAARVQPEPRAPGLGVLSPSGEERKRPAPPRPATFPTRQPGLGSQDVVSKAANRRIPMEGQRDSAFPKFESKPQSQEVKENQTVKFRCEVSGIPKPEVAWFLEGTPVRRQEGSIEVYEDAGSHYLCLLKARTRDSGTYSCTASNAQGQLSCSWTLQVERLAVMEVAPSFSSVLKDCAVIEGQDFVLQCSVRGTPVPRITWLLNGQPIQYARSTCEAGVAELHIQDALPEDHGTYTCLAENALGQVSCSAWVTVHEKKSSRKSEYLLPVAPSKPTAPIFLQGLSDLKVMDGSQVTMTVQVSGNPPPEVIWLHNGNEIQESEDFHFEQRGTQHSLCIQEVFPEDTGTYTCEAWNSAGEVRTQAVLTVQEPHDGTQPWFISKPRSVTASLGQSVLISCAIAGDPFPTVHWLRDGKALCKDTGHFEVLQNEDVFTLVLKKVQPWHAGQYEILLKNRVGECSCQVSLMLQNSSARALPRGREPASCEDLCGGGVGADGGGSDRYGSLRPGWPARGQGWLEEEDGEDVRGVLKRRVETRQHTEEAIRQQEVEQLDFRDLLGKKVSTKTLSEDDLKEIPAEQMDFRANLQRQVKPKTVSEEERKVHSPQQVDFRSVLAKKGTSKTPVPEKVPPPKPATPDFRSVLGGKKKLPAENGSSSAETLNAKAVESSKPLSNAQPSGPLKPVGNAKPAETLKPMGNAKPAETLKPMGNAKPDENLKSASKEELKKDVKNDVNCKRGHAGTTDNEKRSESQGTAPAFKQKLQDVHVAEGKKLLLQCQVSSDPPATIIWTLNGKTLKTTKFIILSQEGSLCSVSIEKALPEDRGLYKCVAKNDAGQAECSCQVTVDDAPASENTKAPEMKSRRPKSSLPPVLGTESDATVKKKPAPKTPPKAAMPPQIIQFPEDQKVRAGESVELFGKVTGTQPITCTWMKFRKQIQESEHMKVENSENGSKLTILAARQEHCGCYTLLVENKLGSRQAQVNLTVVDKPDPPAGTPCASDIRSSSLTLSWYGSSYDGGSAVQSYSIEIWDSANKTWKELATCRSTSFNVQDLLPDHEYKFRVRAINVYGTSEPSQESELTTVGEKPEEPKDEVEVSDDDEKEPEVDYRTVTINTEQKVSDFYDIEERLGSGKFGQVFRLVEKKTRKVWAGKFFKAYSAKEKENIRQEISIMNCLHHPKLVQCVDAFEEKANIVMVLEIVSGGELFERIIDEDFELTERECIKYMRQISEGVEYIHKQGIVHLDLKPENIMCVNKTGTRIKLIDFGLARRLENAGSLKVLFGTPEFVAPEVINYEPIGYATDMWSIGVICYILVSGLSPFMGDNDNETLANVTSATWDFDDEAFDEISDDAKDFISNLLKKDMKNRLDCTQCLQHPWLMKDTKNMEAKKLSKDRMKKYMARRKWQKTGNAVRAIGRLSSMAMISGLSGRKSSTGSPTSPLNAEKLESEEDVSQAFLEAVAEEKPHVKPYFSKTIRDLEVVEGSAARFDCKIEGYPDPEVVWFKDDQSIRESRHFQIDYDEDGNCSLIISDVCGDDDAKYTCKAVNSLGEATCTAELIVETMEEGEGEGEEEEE
Assay: KINOMEscan competition binding
Settings: compound 10.0 µM
Entries and their kinase still bound, per cent of control
Note: unit % is implicit; provide only the numeric part.

// below: answered molecules
| molecule | unit_annotation | kinase still bound, per cent of control |
| --- | --- | --- |
| COc1ccc(N(C(=O)Oc2cc(C(=O)Nc3cccc(C(F)(F)F)c3)ccc2C)c2ccnc(Nc3ccc(N4CCN(C)CC4)cc3)n2)c(OC)c1 | % | 100 |
| N#C/C(=C1/Nc2ccccc2S1)c1ccnc(NCCc2cccnc2)n1 | % | 66 |
| C=CC(=O)Nc1ccc(C(=O)c2sc(Nc3ccc(N4CCN(C)CC4)cc3OC)nc2N)cc1 | % | 8.6 |
| CCOc1cc(N2CCC(O)CC2)ccc1Nc1ncc2c(n1)N(C)c1ccccc1C(=O)N2C | % | 100 |
| CNC(=O)Nc1ccc(-c2nc(N3CC4CCC(C3)O4)c3cnn(C4CCC5(CC4)OCCO5)c3n2)cc1 | % | 100 |

Exam item: Would you kindly share the measured kinase still bound, per cent of control for CC1=C(C(=O)Nc2cc3cn[nH]c3cc2F)C(c2ccc(C(F)(F)F)cc2)CC(=O)N1 (centres undefined) ?
Marked response: 75

Exam item: Entry to check: CCN(CCO)CCCOc1ccc2c(Nc3cc(CC(=O)Nc4cccc(F)c4)[nH]n3)ncnc2c1
Marked response: 80

Exam item: Follow-up entry: COc1cc(N2CCC(C(N)=O)CC2)ccc1Nc1nc(N)c(Cl)c(Nc2ccccc2S(=O)(=O)C(C)C)n1
Marked response: 5

Exam item: Same for COc1cc2ncnc(Nc3cccc(Cl)c3)c2cc1OC
Marked response: 18

###

Molecular target: CDC42BPB (human) (UniProt Q9Y5S2)
Sequence (Q9Y5S2 whole entry, looked up): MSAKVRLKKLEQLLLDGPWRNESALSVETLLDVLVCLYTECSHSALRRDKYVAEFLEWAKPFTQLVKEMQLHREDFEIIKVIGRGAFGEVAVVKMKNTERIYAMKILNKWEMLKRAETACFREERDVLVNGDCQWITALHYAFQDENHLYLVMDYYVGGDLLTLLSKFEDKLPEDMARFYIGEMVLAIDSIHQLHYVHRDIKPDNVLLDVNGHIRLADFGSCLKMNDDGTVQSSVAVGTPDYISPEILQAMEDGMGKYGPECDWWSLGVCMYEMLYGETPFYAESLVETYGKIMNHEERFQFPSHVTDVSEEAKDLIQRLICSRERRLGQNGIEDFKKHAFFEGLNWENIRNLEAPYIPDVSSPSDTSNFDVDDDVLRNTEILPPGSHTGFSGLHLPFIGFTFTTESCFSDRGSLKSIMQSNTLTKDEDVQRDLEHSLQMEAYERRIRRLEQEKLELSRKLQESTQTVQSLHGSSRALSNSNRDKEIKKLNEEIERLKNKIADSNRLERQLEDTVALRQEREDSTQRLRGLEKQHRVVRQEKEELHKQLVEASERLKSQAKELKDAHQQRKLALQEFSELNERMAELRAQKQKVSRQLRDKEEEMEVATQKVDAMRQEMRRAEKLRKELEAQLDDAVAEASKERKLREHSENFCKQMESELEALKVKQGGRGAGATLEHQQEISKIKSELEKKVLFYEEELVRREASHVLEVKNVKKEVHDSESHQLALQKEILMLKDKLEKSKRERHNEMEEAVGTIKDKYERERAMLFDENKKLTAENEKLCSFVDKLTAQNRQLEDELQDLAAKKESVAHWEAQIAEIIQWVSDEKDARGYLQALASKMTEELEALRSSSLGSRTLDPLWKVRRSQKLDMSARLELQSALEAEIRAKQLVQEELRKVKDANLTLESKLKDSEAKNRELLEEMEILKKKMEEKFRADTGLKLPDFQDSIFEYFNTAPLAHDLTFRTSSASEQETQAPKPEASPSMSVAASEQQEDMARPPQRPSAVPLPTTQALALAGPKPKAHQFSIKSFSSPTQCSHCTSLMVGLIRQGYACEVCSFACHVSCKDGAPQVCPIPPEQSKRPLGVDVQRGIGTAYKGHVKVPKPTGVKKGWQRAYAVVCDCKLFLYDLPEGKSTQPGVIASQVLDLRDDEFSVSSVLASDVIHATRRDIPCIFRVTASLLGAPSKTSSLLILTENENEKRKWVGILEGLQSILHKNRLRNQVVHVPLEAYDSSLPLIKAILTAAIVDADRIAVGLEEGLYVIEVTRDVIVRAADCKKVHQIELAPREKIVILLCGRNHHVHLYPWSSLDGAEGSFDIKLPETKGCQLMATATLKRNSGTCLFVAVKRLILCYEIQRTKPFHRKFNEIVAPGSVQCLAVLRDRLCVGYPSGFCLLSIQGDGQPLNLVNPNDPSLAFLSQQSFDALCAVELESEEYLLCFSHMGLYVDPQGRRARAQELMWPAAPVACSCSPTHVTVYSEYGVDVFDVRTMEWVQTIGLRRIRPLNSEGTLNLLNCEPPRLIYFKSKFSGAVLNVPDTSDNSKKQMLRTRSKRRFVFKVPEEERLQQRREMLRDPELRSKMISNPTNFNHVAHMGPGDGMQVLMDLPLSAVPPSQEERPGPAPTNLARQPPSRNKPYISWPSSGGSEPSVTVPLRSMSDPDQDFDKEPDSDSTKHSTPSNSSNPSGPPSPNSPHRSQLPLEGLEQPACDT
Assay: KINOMEscan competition binding
Details: compound 10.0 µM
property: kinase still bound, per cent of control (%)
Supply the numeric figure in %, leaving out any unit text.

Examples with answers:
| compound | kinase still bound, per cent of control / % |
| --- | --- |
| Cc1cn(-c2cc(C(=O)Nc3ccc(C)c(NC(=O)c4ccno4)c3)cc(C(F)(F)F)c2)cn1 | 100 |
| COc1cc2ncnc(Nc3cccc(Cl)c3)c2cc1OC | 98 |
| CCN(CCO)CCCOc1ccc2c(Nc3cc(CC(=O)Nc4cccc(F)c4)[nH]n3)ncnc2c1 | 100 |
| CC1=C(C(=O)Nc2cc3cn[nH]c3cc2F)C(c2ccc(C(F)(F)F)cc2)CC(=O)N1 (stereo not given) | 22 |

Turning now to a further record.
Exam item: Given the entry O=c1[nH]c2ccccc2n1C1CCN(Cc2ccc(-c3nc4cc5[nH]cnc5cc4nc3-c3ccccc3)cc2)CC1 , report its measured kinase still bound, per cent of control.
Marked response: 83
